assayed system: F-IX-activating enzyme (Homo sapiens)
Construct: 1-219; from tissue; host or cells: erythrocyte membranes (crude surfactant extract)
Sequence (P08246 30-248): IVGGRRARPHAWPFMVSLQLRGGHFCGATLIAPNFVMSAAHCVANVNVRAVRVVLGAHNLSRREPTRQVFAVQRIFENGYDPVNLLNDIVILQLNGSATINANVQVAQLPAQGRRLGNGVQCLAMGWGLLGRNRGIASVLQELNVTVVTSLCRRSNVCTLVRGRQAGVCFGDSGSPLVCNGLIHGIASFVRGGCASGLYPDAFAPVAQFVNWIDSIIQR
method description: Assay of inhibitor effect: fluorogenic substrate Suc(OMe)-Ala-Ala-Pro-Val-MCA with crude enzyme extract
Format: biochemical
condition set: material concentration 1 mM; 30 min at 37° C.; control without material = 100.0
measurement label: Relative activity of the enzyme (%)
Provide the measurement as a number trailed by its unit.

[Ca+2].[Cl-].[Cl-] [CaCl2] :: 156.4%
c1cnc2c(c1)ccc1cccnc12 [Phenanthroline, reference compound] :: 28.8%
O=C(O)CN(CCN(CC(=O)O)CC(=O)O)CC(=O)O [EDTA, reference compound] :: 74.5%
O=S(=O)(F)Cc1ccccc1 [PMSF, reference compound] :: 19.2%

Please give Relative activity of the enzyme (%), item by item, for the list that follows.
1. CC(=O)N[C@@H](CC(C)C)C(=O)N[C@@H](CC(C)C)C(=O)N[C@H](C=O)CCCNC(=N)N [Leupeptin, reference compound]
2. [Cl-].[Cl-].[Mg+2] [MgCl2]

1: 78.5%; 2: 100.5%

Attribution: patent US20040223967A1
